- measurement_notes: Apparent permeability of the compound at 50 uM after 5 hrs by PAMPA method
- Format: physicochemical
Peptide text beside a SMILES is read from it.
Friendly reminder: Papp at 5 h, 50 µM below 1 ×10⁻⁶ cm/s is yes (1), at or above is no (0).

| compound | qualitative_label |
| --- | --- |
| CC(C)C[C@@H]1NC(=O)[C@H](Cc2c[nH]c3ccccc23)NC(=O)[C@H]2CCCN2C(=O)[C@@H](CC(C)C)NC(=O)[C@@H](CC(C)C)NC(=O)[C@@H](CC(C)C)NC1=O | no (0) |
| CC(C)C[C@@H]1NC(=O)[C@H](Cc2ccc(O)cc2)NC(=O)[C@H]2CCCN2C(=O)[C@H](CC(C)C)NC(=O)[C@H](CC(C)C)N(C)C(=O)[C@@H](CC(C)C)N(C)C1=O | yes (1) |
| CC(C)C[C@@H]1NC(=O)[C@H](Cc2ccccc2)NC(=O)[C@H]([C@@H](C)O)NC(=O)CNC(=O)[C@H](C(C)C)NC(=O)[C@H](Cc2ccc(O)cc2)NC1=O (cyclo(FLYVGT)) | yes (1) |
| CC(C)C[C@H]1NC(=O)[C@H](CC(C)C)N(C)C(=O)[C@H](CC(C)C)N(C)C(=O)[C@H](Cc2ccc(O)cc2)NC(=O)[C@@H]2CCCN2C(=O)[C@H]2CCCN2C1=O | no (0) |
| CC(C)C[C@@H]1C(=O)N(C)[C@@H](CC(C)C)C(=O)N[C@@H](Cc2ccc(O)cc2)C(=O)N(C)[C@H](C)C(=O)N(C)CC(=O)N[C@@H](Cc2ccccc2)C(=O)N1C | yes (1) |

Reference source for all entries: ChEMBL document CHEMBL3425496
